System: EKVX
protocol: NCI tumour cell line growth inhibition, 48 h
Active and inactive are the calls of the source. No stated cut-off is given here; in the data, active = GI50 up to about 1.1 µM and inactive = higher.
Thanks in advance; please answer with one of these: active, inactive

**Query** Dear all, I need the recorded test outcome for CC(=O)CC(OC(C)=O)C1=CCC2C(CC1C)OC(=O)C2C (stereo unspecified) , thank you.
**Result** inactive

**Query** Dear all, I need the recorded test outcome for N=C(N)C(/N=N\c1ccccc1)C(=N)N (stereo unspecified) , thank you.
**Result** inactive

**Query** Dear all, I need the recorded test outcome for COC(=O)C1=CN(C2CCCCC2)C2(c3ccccc3)c3ccccc3C(=O)OC(=O)C12 (stereo unspecified) , thank you.
**Result** inactive

**Query** Dear all, I need the recorded test outcome for COc1cc2c3c(n(C)c(=O)c2cc1OC)-c1cc2c(cc1/C3=C\CCCCCBr)OCO2 , thank you.
**Result** inactive

**Query** Dear all, I need the recorded test outcome for Cc1nc(-n2nc(-c3ccccc3)cc2-c2ccccc2)sc1C(/C=C\c1ccc([N+](=O)[O-])cc1)=N/NC(=S)NN , thank you.
**Result** inactive

**Query** Dear all, I need the recorded test outcome for COC(=O)c1ccc(/N=N/N(C)COc2ccc([N+](=O)[O-])cc2)cc1 , thank you.
**Result** inactive

**Query** Dear all, I need the recorded test outcome for CCOC(=O)NNC(=O)C1CSC(c2ccccc2)N1C(C)=O (stereo unspecified) , thank you.
**Result** inactive

**Query** Dear all, I need the recorded test outcome for Cc1ccc(NC(=O)c2cc3ccccc3c(/N=N\c3ccccc3O)c2O)c(C)c1 , thank you.
**Result** inactive

**Query** Dear all, I need the recorded test outcome for Cc1ccc(-n2c(=S)[nH]c3ccc(Br)cc3c2=O)cc1 , thank you.
**Result** inactive

**Query** Dear all, I need the recorded test outcome for N#CCCN(CCC#N)c1ccc(/C=C2\SC(=S)NC2=O)cc1Br , thank you.
**Result** inactive

**Query** Dear all, I need the recorded test outcome for Cc1ccc(NC(=O)CC(=O)n2nc(-c3ccccc3)c(/N=N/c3ccccc3Cl)c2-c2ccccc2)cc1 , thank you.
**Result** inactive

**Query** Dear all, I need the recorded test outcome for C=CCN(c1cc(OCc2ccccc2)c(NC(C)=O)cc1[N+](=O)[O-])S(C)(=O)=O , thank you.
**Result** inactive

**Query** Dear all, I need the recorded test outcome for CCN(CC)CCCn1c(=O)c2ccccc2n2c3c(=O)n(C)c(=O)n(C)c3nc12 , thank you.
**Result** inactive

**Query** Dear all, I need the recorded test outcome for O=C(CSc1nc(-c2ccccc2)c(-c2ccccc2)[nH]1)NNC(=S)Nc1ccccc1 , thank you.
**Result** active

**Query** Dear all, I need the recorded test outcome for CC(=O)O[C@]12CCC[C@H]1C1(O)C(O)CCC[C@H]12 (stereo partly specified) , thank you.
**Result** inactive

**Query** Dear all, I need the recorded test outcome for Cc1[nH]c2ccccc2c1C1=CC(=O)N(c2ccccc2)C1=O , thank you.
**Result** inactive

**Query** Dear all, I need the recorded test outcome for Nc1nc(NCCO)c(N=O)c(=O)[nH]1 , thank you.
**Result** inactive

**Query** Dear all, I need the recorded test outcome for COc1ccc(NC(=O)CC(=O)n2nc(C)c(/N=N/c3cccc(C)c3)c2C)cc1 , thank you.
**Result** inactive

**Query** Dear all, I need the recorded test outcome for O=C1c2ccccc2CC12Cc1ccccc1C2 , thank you.
**Result** inactive

**Query** Dear all, I need the recorded test outcome for COc1ccc(/C=C/c2cc(OC)cc(OC)c2)cc1 [TRISMETHOXYRESVERATROL] , thank you.
**Result** inactive

**Query** Dear all, I need the recorded test outcome for CC(C)c1ccc2c(c1)/C(=C1/Nc3ccccc3C1=O)C(=O)N2 , thank you.
**Result** inactive
